// provenance: ChEMBL document CHEMBL3596191

Assay: Inhibition of Brucella suis beta-carbonic anhydrase 2 incubated for 15 mins prior to testing by stopped-flow CO2 hydration assay
OBSERVED PROPERTY: pKi
One number for each entry, as −log10 of the molar value.

# count of solved cases: 3
NS(=O)(=O)c1ccc(CC/N=C/c2c[nH]c3ccc(Br)cc23)cc1; 8.61
COc1ccc(/C=N/CCc2ccc(S(N)(=O)=O)cc2)c(O)c1; 7.66
NS(=O)(=O)c1ccc(CC/N=C/c2ccc(Br)cc2O)cc1; 7.50

Please give pKi for each item listed below.
1. CSc1ccc(/C=N/CCc2ccc(S(N)(=O)=O)cc2)cc1
2. NS(=O)(=O)c1ccc(CC/N=C/c2c(F)c(F)cc(F)c2F)cc1

OUTPUT:
[7.54, 8.59]

INPUT: If you can, please state the reported pKi value of NS(=O)(=O)c1ccc(/N=C/c2ccccc2)c(F)c1 .
OUTPUT: 8.64

----------
Tested on: Brucella suis
Experiment: Potency index, ratio of acetazolamide Ki to compound Ki for Brucella suis beta-carbonic anhydrase 2
OBSERVED PROPERTY: Ratio Ki
Numbers only.

Check out these entries, answers already filled in.
NS(=O)(=O)c1ccc(CC/N=C/c2cccc(Br)c2O)cc1; 10
NS(=O)(=O)c1ccc(/N=C/c2ccc(-c3ccccc3)cc2)c(F)c1; 2
NS(=O)(=O)c1ccc(/N=C/c2ccccc2)c(F)c1; 100
N#Cc1ccc(/C=N/CCc2ccc(S(N)(=O)=O)cc2)cc1; 100
NS(=O)(=O)c1ccc(CC/N=C/c2ccc(-c3ccccc3)cc2)cc1; 10

Look up Ratio Ki for the entries below, preserving their order.
1. CSc1ccc(/C=N/CCc2ccc(S(N)(=O)=O)cc2)cc1
2. NS(=O)(=O)c1ccc(CC/N=C/c2ccc(S(=O)(=O)O)o2)cc1

OUTPUT:
1. 10
2. 10

Please give Ratio Ki, item by item, for the list that follows.
1. NS(=O)(=O)c1ccc(CC/N=C/c2c(F)c(F)cc(F)c2F)cc1
2. NS(=O)(=O)c1ccc(CC/N=C/c2ccc(-c3ccccn3)cc2)cc1
3. NS(=O)(=O)c1ccc(/N=C/c2ccc(Br)cc2O)cc1
4. NS(=O)(=O)c1ccc(CC/N=C/c2ccc(Br)cc2O)cc1

OUTPUT:
[100, 10, 10, 10]

----------
Kindly supply the reported Ratio Ki values for the records listed here.
Experiment: Selectivity ratio of Ki for human alpha-carbonic anhydrase 2 to Ki for Brucella suis beta-carbonic anhydrase 1
One number for each entry.

Examples with their reported Ratio Ki follow.
NS(=O)(=O)c1ccc(/N=C/c2ccc(-c3ccccn3)cc2)cc1; 0.7
NS(=O)(=O)c1ccc(/N=C/c2ccco2)c(F)c1; 0.2
NS(=O)(=O)c1ccc(/N=C/c2ccc(Br)cc2O)cc1; 1.1

The following compounds each have a reported value; give each one's Ratio Ki.
1. COc1ccc(/C=N/CCc2ccc(S(N)(=O)=O)cc2)c(O)c1
2. NS(=O)(=O)c1ccc(/N=C/c2ccc(-c3ccccc3)cc2)c(F)c1
3. NS(=O)(=O)c1ccc(CC/N=C/c2c(F)c(F)cc(F)c2F)cc1

OUTPUT:
1. 6.4
2. 1
3. 22.3

----------
Record form. Attribute: Ratio Ki. Fill in for each entry.
Assay: Selectivity ratio of Ki for human alpha-carbonic anhydrase 2 to Ki for Cryptococcus neoformans beta-carbonic anhydrase

Use these answered entries as a reference point.
NS(=O)(=O)c1ccc(/N=C/c2ccc(-c3ccccn3)cc2)cc1; 31.4
NS(=O)(=O)c1ccc(CC/N=C/c2ccc(Br)cc2O)cc1; 29.9
NS(=O)(=O)c1ccc(CC/N=C/c2ccc(S(=O)(=O)O)o2)cc1; 38.5
N#Cc1ccc(/C=N/CCc2ccc(S(N)(=O)=O)cc2)cc1; 34.6
NS(=O)(=O)c1ccc(/N=C/c2ccccc2)c(F)c1; 1270

Now, please, on to the next compound.
INPUT: Need Ratio Ki of NS(=O)(=O)c1ccc(/N=C/c2ccc(Br)cc2O)cc1 , thanks.
OUTPUT: 41.9
